Target: anti-CD28 Fab (SEQ ID NOs: 202, 203)
Sequence (VH, as listed by the source, chain 1 of 2): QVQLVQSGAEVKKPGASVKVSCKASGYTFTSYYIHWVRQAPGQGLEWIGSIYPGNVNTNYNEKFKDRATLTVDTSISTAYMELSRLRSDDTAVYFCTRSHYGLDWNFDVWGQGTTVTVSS
Sequence (VL, as listed by the source, chain 2 of 2): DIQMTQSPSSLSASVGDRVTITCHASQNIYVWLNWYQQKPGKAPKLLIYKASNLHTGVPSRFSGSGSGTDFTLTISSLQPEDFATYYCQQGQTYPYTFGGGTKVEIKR
Experiment: phage binding ELISA; captured anti-CD28 Fab pre-incubated with CD28 antigen as competitor, anti-M13-HRP detection
readoutLabel: Anti-CD28 Fab signal in the presence of CD28
I'd appreciate a reply containing only the number, no unit.

binder: SCAAGAGYGWPQCL [Phage-1257]
number: 0.13

What the record says about ICAAGAGWPWPWCL [Phage-1245] : Anti-CD28 Fab signal in the presence of CD28 is 0.1

What the record says about TCAAGAVWQWPTCF [Phage-1248] : Anti-CD28 Fab signal in the presence of CD28 is 0.06

What the record says about TCSAGATYGWPACF [Phage-1244] : Anti-CD28 Fab signal in the presence of CD28 is 0.07

What the record says about TCSAGAQWEWPACL [Phage-1253] : Anti-CD28 Fab signal in the presence of CD28 is 0.08

What the record says about ECSAGAMWGWPACF [Phage-1246] : Anti-CD28 Fab signal in the presence of CD28 is 0.09

What the record says about GCAAGAEYNWPTCL [Phage-1251] : Anti-CD28 Fab signal in the presence of CD28 is 0.64

What the record says about GCAAGFHYTLSTCL [Phage-1259] : Anti-CD28 Fab signal in the presence of CD28 is 0.05

What the record says about WCSAVFSYQWPVCL [Phage-1254] : Anti-CD28 Fab signal in the presence of CD28 is 0.06

What the record says about DCWWDSPYHWRVCL [Phage-1256] : Anti-CD28 Fab signal in the presence of CD28 is 0.07

What the record says about TCSAGATYKWPMCF [Phage-1243] : Anti-CD28 Fab signal in the presence of CD28 is 0.07

What the record says about TCAAGATYDWPSCL [Phage-1247] : Anti-CD28 Fab signal in the presence of CD28 is 0.08

What the record says about TCAAGAAYTWPHCF [Phage-1252] : Anti-CD28 Fab signal in the presence of CD28 is 0.11

What the record says about SCGGGFHYSWPLCF [Phage-1258] : Anti-CD28 Fab signal in the presence of CD28 is 0.15

What the record says about SCSAGASYAWPMCI [Phage-1255] : Anti-CD28 Fab signal in the presence of CD28 is 0.06

What the record says about TCAAGAQLEWPWCF [Phage-1250] : Anti-CD28 Fab signal in the presence of CD28 is 0.07

What the record says about PCSAGATYAWPYCL [Phage-1249] : Anti-CD28 Fab signal in the presence of CD28 is 0.09
